assayTarget: T1, human CD8A-Fc (in house) (human, UniProt P01732 22-182, limits assumed)
T1 construct: captured by goat anti-human Fc on the ProteOn chip; also called hCD8A-Fc; recombinant human CD8 alpha; not shown: linker/tag and Fc of human IgG1
T1 sequence (P01732 22-182 limits assumed): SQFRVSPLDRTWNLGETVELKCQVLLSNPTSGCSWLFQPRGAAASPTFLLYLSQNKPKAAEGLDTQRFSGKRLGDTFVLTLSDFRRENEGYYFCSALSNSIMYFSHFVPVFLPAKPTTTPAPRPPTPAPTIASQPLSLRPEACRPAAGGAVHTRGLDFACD
protocolNotes: SPR (ProteOn), captured hCD8A-Fc
quantityName: koff (s⁻¹)

A. P283DR9P1364_C10 (designed binder, FN3 domain) LPAPKNLVVSRVTEDSARLSWTAPDAAFDSFQIAYPEWPKDGEAIVLTVPGSERSYDLTGLKPGTEYAVFIWGVKGGVYSNPLSAIFTT
B. P283HR7P1368_H8 (designed binder, FN3 domain) LPAPKNLVVSRVTEDSARLSWTAPDAAFDSFGITYLDPRNGEAISLNVPGSERSYDLTGLKPGTEYWVVIIGVKGGINSYPLGASFTT
C. P283FR9P1366_H8 (designed binder, FN3 domain) LPAPKNLVVSRVTEDSARLSWTAPDAAFDSFYISYPEWPGSGEAIVLTVPGSERSYDLTGLKPGTEYAVFIWCVKGGWLSDPLSAIFTT
D. P283ER9P1365_G1 (designed binder, FN3 domain) LPAPKNLVVSRVTEDSARLSWTAPDAAFDSFYIPYRESEFRGEAIALSVPGSERSYDLTGLKPGTKYRVIIIGVKGGEFSQPLGAIFTT
**Q:** # rank by koff, ascending (min first) Answer by listing the labels in the order asked for.
**A:** C, B, A, D
(C: 0.000175 s⁻¹, B: 0.000763 s⁻¹, A: 0.00129 s⁻¹, D: 0.00367 s⁻¹)
